assay: NFAT Signaling Pathway (AID 444); conditions: Jurkat NFAT-bla M1, carbachol, beta-lactamase ratio, 5 h; at 7.69 µM (top of the series) unless noted;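 further: carbachol stimulus at about its EC50 of 1 µM final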
Records with an inconclusive call do not appear.
The threshold is inclusive: activity change, negative = inhibition of exactly 2% counts as Satisfied; values below receive Not satisfied.

- Compound Structure String: "Nc1cc(S(=O)(=O)O)cc2ccc(S(=O)(=O)O)cc12"
  Classification: "Satisfied"
- Compound Structure String: "N[C@@H](Cc1cccc([N+](=O)[O-])c1)C(=O)O"
  Classification: "Not satisfied"
- Compound Structure String: "C[C@H]1C[C@@H]2[C@H]3CCC4=CC(=O)C=C[C@@]4(C)[C@]3(Cl)[C@@H](Cl)C[C@]2(C)[C@]1(O)C(=O)COP(=O)(O)O"
  Classification: "Satisfied"
- Compound Structure String: "Cc1c(Cl)c(S(N)(=O)=O)cc2c1=NC=NS=2(=O)O"
  Classification: "Satisfied"
- Compound Structure String: "NC(N)=N[C@H](CC(=O)O)c1ccccc1"
  Classification: "Not satisfied"
